Assign Bleeding time prolongation (%) to each entry below.
Test system: ICR mice
Assay: Effect on in vivo bleeding time in mice (tail cut)
Conditions: 100 mg/kg i.g. once daily for 4 days
Field format: number, assumed %, no unit text.

Enquiry: // fetch ICR mice Bleeding time prolongation (%) for `Cn1c(=O)cc(NCCC(=O)NCCC(=O)Oc2ccccc2)n(Cc2ccccc2)c1=O`
Return: −9.70

Enquiry: Okay, and `CCOC(=O)CCCCNC(=O)CCCCNC(=O)CCCCNc1cc(=O)n(C)c(=O)n1C` ?
Return: 26.40

Enquiry: Try the molecule `CCOC(=O)CCNC(=O)CCNc1cc(=O)n(C)c(=O)n1C`
Return: −8.89

Enquiry: Proceed to `CCOC(=O)CCNC(=O)CCNc1cc(=O)n(C2CCCC2)c(=O)n1C1CCCC1`
Return: 13.00

Enquiry: # iterate: CC1CCC(C(C)C)C(OC(=O)CCNC(=O)CCNc2cc(=O)n(C)c(=O)n2Cc2cc(F)ccc2C#N)C1 (centres unmarked)
Return: 11.00

Enquiry: Also check `CC(C)OC(=O)CCNC(=O)CCNc1cc(=O)n(C)c(=O)n1Cc1cc(F)ccc1C#N`
Return: 15.60

Enquiry: Next record, please: `CCOC(=O)CCNC(=O)CCNc1cc(=O)n(C)c(=O)n1Cc1ccccc1C#N`
Return: −6.20

Enquiry: Record: Cn1c(NCCC(=O)NCCC(=O)OC2CC3CCC2(C)C3(C)C)cc(=O)n(C)c1=O (centres unmarked)
Return: 16.40

# credit: patent US20250066310A1
